molecular target: MSH2 (MutSβ subunit);MSH3 (MutSβ subunit) (human;human, UniProt P43246;P20585 1-934;1-1137, |); experiment: SPR; 10 mM Mg2+; FAN1 SPR: 20 mM Tris-HCl pH 7.6, 70 mM NaCl, 10 mM CaCl2, 1 mM EDTA, 0.01% P-20, 1 mM DTT, 0.05 mg/ml BSA, 5°C; MutSβ SPR: 10 mM Tris-HCl pH 7.6, 150 mM NaCl, 10 mM MgCl2, 1 mM EDTA, 1 mM DTT, 0.005% P-20 (samples held at 10°C); conditions: protein: recombinant;recombinant; tags: ;; copies: 1;1; label: 5'-biotin on strand 1; 5'-digoxigenin on strand 2; central 6-nt extrusion in strand 1, 20 bp each side, blunt
pKd: −log10 of the molar value.

| BINDER | pKd |
| --- | --- |
| (CAG)2 extrusion mr78 (dsDNA) DNA 1: CGAATTTCTAGACTCGAGATCAGCAGCTGCTAGGTCGAGTCTAGAG DNA 2: CTCTAGACTCGACCTAGCAGATCTCGAGTCTAGAAATTCG | 9.30 |
